Property: IC50; scope: individual compounds
- system under test: H1047R PIK3CA enzyme (Homo sapiens, UniProt P42336, H1047R)
- Sequence (P42336 whole entry H1047R): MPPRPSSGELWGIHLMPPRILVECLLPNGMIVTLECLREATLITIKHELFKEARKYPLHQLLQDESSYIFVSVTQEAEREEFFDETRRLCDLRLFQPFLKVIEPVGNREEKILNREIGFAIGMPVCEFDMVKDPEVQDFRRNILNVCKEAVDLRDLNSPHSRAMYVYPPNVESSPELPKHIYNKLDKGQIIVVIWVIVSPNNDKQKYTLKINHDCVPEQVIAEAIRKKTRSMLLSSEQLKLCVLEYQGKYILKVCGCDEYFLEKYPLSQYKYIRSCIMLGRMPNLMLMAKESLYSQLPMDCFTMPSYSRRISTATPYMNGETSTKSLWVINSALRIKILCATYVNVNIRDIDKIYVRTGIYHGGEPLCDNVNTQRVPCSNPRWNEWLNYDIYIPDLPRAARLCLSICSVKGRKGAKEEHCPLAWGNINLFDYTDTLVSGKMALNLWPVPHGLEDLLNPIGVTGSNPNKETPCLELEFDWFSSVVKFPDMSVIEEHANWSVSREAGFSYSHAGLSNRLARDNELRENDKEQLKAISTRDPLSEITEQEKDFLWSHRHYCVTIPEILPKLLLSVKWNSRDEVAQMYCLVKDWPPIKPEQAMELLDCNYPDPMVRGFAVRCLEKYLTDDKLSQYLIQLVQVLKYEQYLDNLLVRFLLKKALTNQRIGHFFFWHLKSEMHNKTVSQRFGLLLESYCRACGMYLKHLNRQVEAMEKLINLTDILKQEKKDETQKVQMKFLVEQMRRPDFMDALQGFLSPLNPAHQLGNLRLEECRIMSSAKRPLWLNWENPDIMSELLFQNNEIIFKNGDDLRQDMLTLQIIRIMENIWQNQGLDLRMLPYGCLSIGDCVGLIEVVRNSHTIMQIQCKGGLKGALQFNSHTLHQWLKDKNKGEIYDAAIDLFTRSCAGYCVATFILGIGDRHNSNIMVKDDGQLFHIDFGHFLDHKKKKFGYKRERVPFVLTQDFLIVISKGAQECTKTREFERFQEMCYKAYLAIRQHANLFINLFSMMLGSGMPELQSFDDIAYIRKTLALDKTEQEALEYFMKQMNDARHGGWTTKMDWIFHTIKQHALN
- Sequence (P27986 whole entry partner): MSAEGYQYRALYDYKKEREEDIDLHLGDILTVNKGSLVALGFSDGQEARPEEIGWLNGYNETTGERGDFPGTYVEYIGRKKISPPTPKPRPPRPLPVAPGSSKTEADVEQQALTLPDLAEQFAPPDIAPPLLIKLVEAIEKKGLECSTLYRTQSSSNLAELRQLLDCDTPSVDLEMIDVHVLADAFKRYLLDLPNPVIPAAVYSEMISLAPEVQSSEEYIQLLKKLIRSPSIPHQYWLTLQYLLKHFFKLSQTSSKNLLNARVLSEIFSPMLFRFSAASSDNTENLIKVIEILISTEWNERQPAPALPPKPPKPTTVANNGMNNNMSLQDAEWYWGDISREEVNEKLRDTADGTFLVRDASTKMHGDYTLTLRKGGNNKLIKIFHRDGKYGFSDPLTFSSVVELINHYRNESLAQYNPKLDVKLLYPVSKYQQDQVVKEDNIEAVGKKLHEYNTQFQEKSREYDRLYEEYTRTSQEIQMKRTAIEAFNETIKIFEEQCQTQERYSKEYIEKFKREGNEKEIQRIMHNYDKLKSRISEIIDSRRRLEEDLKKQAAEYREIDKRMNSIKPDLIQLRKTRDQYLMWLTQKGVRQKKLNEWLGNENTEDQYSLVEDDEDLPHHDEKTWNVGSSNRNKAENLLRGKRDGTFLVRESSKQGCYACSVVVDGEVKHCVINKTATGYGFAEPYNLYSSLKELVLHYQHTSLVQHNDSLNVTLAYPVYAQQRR
- experimental details: ADP-Glo Biochemical PIK3CA Kinase Assay

**Query** Consider the compound shown here: O=C1N[C@@H](c2cc(F)ccc2Cl)c2c(NC(=O)N3C[C@@](O)(C(F)(F)F)c4cc(F)ccc43)cc(-n3nccn3)cc21 (single isomer, unassigned) [Compound I-2571] What is its recorded IC50?
**Result** 1000 to 10000 nM

---
**Query** Consider the compound shown here: O=C(Nc1cc(OC[C@H]2CCO2)cc2c1[C@@H](c1cc(F)ccc1Cl)NC2=O)c1cc(F)cc(C(F)(F)F)c1 (single isomer, unassigned) [Compound I-1520] What is its recorded IC50?
**Result** 10000 to 100000 nM

**Query** Consider the compound shown here: O=C(Nc1cc(-c2cnn(-c3cscn3)c2)cc2c1C(c1cc(F)ccc1Cl)NC2=O)c1cc(F)cc(C(F)(F)F)c1 (stereo not shown) [Compound I-1571] What is its recorded IC50?
**Result** ≤ 100 nM

**Query** Consider the compound shown here: N#Cc1cnn2ccc(-c3cc(NC(=O)c4cc(F)cc(C(F)(F)F)c4)c4c(c3)C(=O)NC4c3cc(F)ccc3Cl)cc12 (stereo not shown) [Compound I-1762] What is its recorded IC50?
**Result** ≤ 100 nM

**Query** Consider the compound shown here: O=C1N[C@H](c2cc(F)ccc2Cl)c2c(NC(=O)N3C[C@@](O)(CO)c4ccccc43)cccc21 [Compound I-2167] What is its recorded IC50?
**Result** 10000 to 100000 nM

* * *

- system under test: H1047R PIK3CA enzyme (Homo sapiens, UniProt P42336, H1047R)
- experimental details: ADP-Glo Biochemical PIK3CA Kinase Assay
pIC50: −log10 of the molar value.
Property: pIC50; scope: individual compounds

**Query** Consider the compound shown here: Cc1ccccc1C1NC(=O)c2cccc(NC(=O)c3cc(C(F)(F)F)ccn3)c21 (stereo not drawn) What is its recorded pIC50?
**Result** 4.00 to 5.00

**Query** Consider the compound shown here: C[C@]1(C(=O)Nc2cc(Br)cc3c2[C@H](c2cc(F)ccc2Cl)NC3=O)CCC[C@@H](C(F)(F)F)C1 (single isomer, unassigned) What is its recorded pIC50?
**Result** 5.00 to 6.00

**Query** Consider the compound shown here: O=C1NC(c2cc(F)ccc2Cl)c2c(NC(=O)N3CCC(C4CC4)C3)cccc21 (stereo not drawn) What is its recorded pIC50?
**Result** 4.00 to 5.00

---
**Query** Consider the compound shown here: O=C(Nc1cccc2c1C([C@@H]1CCCC[C@H]1O)NC2=O)c1cc(F)cc(C(F)(F)F)c1 (single isomer, unassigned) What is its recorded pIC50?
**Result** 4.00 to 5.00

**Query** Consider the compound shown here: C[C@@H](C#N)Oc1cc(NC(=O)c2cc(F)cc(C(F)(F)F)c2)c2c(c1)C(=O)N[C@H]2c1cc(F)ccc1Cl (single isomer, unassigned) What is its recorded pIC50?
**Result** ≥ 7.00

**Query** Consider the compound shown here: O=C1NC(c2cc(F)ccc2Cl)c2c(NC(=O)N3CCSC3)cccc21 (stereo not drawn) What is its recorded pIC50?
**Result** 4.00 to 5.00

* * *

- system under test: H1047R PIK3CA enzyme (Homo sapiens, UniProt P42336, H1047R)
- experimental details: ADP-Glo Biochemical PIK3CA Kinase Assay
pIC50: −log10 of the molar value.
endpoint label: pIC50

# example entries with known answers
**Query** Consider the molecule shown here: CN1C(=O)CC[C@@H]1COc1cc(NC(=O)c2cc(F)cc(C(F)(F)F)c2)c2c(c1)C(=O)N[C@@H]2c1cc(F)ccc1Cl (single isomer, unassigned) [Compound I-1569] What is its recorded pIC50?
**Result** 4.00 to 5.00

**Query** Consider the molecule shown here: O=C1N[C@@H](c2cc(F)ccc2Cl)c2c(NC(=O)[C@H]3CC[C@@H](C(F)(F)F)C3)cccc21 [Compound I-2085] What is its recorded pIC50?
**Result** 5.00 to 6.00

**Query** Consider the molecule shown here: O=C(Nc1cc(-c2cnc3ccnn3c2)cc2c1C(c1cc(F)ccc1Cl)NC2=O)c1cc(F)cc(C(F)(F)F)c1 (stereo not drawn) [Compound I-1047] What is its recorded pIC50?
**Result** ≥ 7.00

**Query** Consider the molecule shown here: COc1cc2ncnn2cc1-c1cc(NC(=O)c2cc(F)cc(C(F)(F)F)c2)c2c(c1)C(=O)NC2c1cc(F)ccc1Cl (stereo not drawn) [Compound I-1700] What is its recorded pIC50?
**Result** ≥ 7.00

**Query** Consider the molecule shown here: N#Cc1c(-c2cc(NC(=O)c3cc(F)cc(C(F)(F)F)c3)c3c(c2)C(=O)N[C@H]3c2cc(F)ccc2Cl)cnn1C(F)F [Compound I-1921] What is its recorded pIC50?
**Result** ≥ 7.00

Here is the next item to consider.
**Query** Consider the molecule shown here: O=C(Nc1cc(-c2ccc3nc(Cl)cn3c2)cc2c1C(c1cc(F)ccc1Cl)NC2=O)c1cc(F)cc(C(F)(F)F)c1 (stereo not drawn) [Compound I-1696] What is its recorded pIC50?
**Result** ≥ 7.00

* * *

- system under test: H1047R PIK3CA enzyme (Homo sapiens, UniProt P42336, H1047R)
- experimental details: ADP-Glo Biochemical PIK3CA Kinase Assay
endpoint label: IC50

# example entries with known answers
**Query** Consider the compound shown here: CC(C)(O)CN(CC(C)(C)O)c1cc(NC(=O)c2cc(F)cc(C(F)(F)F)c2)c2c(c1)C(=O)NC2c1cc(F)ccc1Cl (stereo not shown) [Compound I-848] What is its recorded IC50?
**Result** 1000 to 10000 nM

**Query** Consider the compound shown here: COCc1cc(F)cc(C(=O)Nc2cc(Br)cc3c2C(c2cc(F)ccc2Cl)NC3=O)c1 (stereo not shown) [Compound I-1316] What is its recorded IC50?
**Result** 1000 to 10000 nM

**Query** Consider the compound shown here: O=C1NC(c2cc(F)ccc2Cl)c2c(NC(=O)N3CCCC34CC4)cccc21 (stereo not shown) [Compound I-2467] What is its recorded IC50?
**Result** 1000 to 10000 nM

**Query** Consider the compound shown here: N#Cc1cnc2ncc(-c3cc(NC(=O)c4cc(F)cc(C(F)(F)F)c4)c4c(c3)C(=O)N[C@H]4c3cc(F)ccc3Cl)cn12 [Compound I-1859] What is its recorded IC50?
**Result** ≤ 100 nM

**Query** Consider the compound shown here: CCCCC(C)(O)c1cc(NC(=O)c2cc(F)cc(C(F)(F)F)c2)c2c(c1)C(=O)NC2c1cc(F)ccc1Cl (stereo not shown) [Compound I-1186] What is its recorded IC50?
**Result** ≤ 100 nM

**Query** Consider the compound shown here: O=C(Nc1cc(-c2cnc3ncc(Cl)n3c2)cc2c1C(c1cc(F)ccc1Cl)NC2=O)c1cc(F)cc(C(F)(F)F)c1 (stereo not shown) [Compound I-1934] What is its recorded IC50?
**Result** ≤ 100 nM

Here is the next item to consider.
**Query** Consider the compound shown here: O=C1NC(c2cc(F)ccc2Cl)c2c(NC(=O)N3CCC(O)C3)cc(-c3ccc4ncnn4c3)cc21 (stereo not shown) [Compound I-1718] What is its recorded IC50?
**Result** 10000 to 100000 nM

* * *

Property: pIC50; scope: individual compounds
- experimental details: cells
- test settings: Homo sapiens, MCF-10A, read-out: MCF10A IC50
pIC50: −log10 of the molar value.

**Query** Consider the compound shown here: N#Cc1cc(NC(=O)N2C[C@@](O)(C(F)(F)F)c3ccccc32)c2c(c1)C(=O)N[C@@H]2c1cc(F)ccc1Cl (single isomer, unassigned) What is its recorded pIC50?
**Result** > 6.00

---
**Query** Consider the compound shown here: CC(C)(O)Cc1cc(NC(=O)c2cc(F)cc(Cl)c2)c2c(c1)C(=O)N[C@H]2c1cc(F)ccc1Cl What is its recorded pIC50?
**Result** > 6.00

**Query** Consider the compound shown here: O=C1N[C@@H](c2cc(F)ccc2Cl)c2c(NC(=O)N3C[C@@](O)(C(F)(F)F)c4cc(F)ccc43)cccc21 (single isomer, unassigned) What is its recorded pIC50?
**Result** > 6.00

**Query** Consider the compound shown here: O=C(Nc1cc(-c2ccc3ncnn3c2)cc2c1[C@H](c1cc(F)ccc1Cl)NC2=O)c1cc(F)cc(OC(F)(F)F)c1 (stereo in doubt) What is its recorded pIC50?
**Result** > 6.00

**Query** Consider the compound shown here: Cc1ccccc1C1NC(=O)c2cccc(NC(=O)c3coc4ccc(F)cc34)c21 (stereo not shown) What is its recorded pIC50?
**Result** 5.30 to 6.00

**Query** Consider the compound shown here: O=C(Nc1cc(-c2c[nH]nn2)cc2c1C(c1cc(F)ccc1Cl)NC2=O)c1cc(F)cc(C(F)(F)F)c1 (stereo not shown) What is its recorded pIC50?
**Result** > 6.00
